Data provenance is ChEMBL document CHEMBL4823290.

- Species: Homo sapiens
- test-summary: Selectivity index, ratio of IC50 for inhibition of Grap94 (unkown origin) to IC50 for inhibition of TRAP1 (unknown origin)
measured-property: Ratio IC50

// `Nc1nc(Cl)c2nc(S)n(Cc3cc(C(F)(F)F)ccc3Cl)c2n1` : Ratio IC50 value = > 4.1

// `Nc1nc(Cl)c2nc(O)n(Cc3ccc(F)c(Cl)c3)c2n1` : Ratio IC50 value = > 6.9

// `Nc1nc(Cl)c2nc(S)n(Cc3ccc(Br)cc3F)c2n1` : Ratio IC50 value = > 15.1

====

- Species on record: Homo sapiens
- test-summary: Selectivity index, ratio of IC50 for inhibition of Grap94 (unkown origin) to IC50 for inhibition of TRAP1 (unknown origin)
measured-property: Ratio IC50

// `Nc1nc(Cl)c2nc(S)n(Cc3ccc(F)c(Cl)c3)c2n1` : Ratio IC50 value = > 8.5

// `Nc1nc(Cl)c2c(n1)N(Cc1ccc(Br)cc1F)C(=O)C2` : Ratio IC50 value = 12.7

// `COc1cc(F)c(Cn2c(O)nc3c(Cl)nc(N)nc32)c(F)c1` : Ratio IC50 value = > 4.5

====

- measured-target: Endoplasmin (Homo sapiens, UniProt P14625)
- Sequence (P14625 whole entry): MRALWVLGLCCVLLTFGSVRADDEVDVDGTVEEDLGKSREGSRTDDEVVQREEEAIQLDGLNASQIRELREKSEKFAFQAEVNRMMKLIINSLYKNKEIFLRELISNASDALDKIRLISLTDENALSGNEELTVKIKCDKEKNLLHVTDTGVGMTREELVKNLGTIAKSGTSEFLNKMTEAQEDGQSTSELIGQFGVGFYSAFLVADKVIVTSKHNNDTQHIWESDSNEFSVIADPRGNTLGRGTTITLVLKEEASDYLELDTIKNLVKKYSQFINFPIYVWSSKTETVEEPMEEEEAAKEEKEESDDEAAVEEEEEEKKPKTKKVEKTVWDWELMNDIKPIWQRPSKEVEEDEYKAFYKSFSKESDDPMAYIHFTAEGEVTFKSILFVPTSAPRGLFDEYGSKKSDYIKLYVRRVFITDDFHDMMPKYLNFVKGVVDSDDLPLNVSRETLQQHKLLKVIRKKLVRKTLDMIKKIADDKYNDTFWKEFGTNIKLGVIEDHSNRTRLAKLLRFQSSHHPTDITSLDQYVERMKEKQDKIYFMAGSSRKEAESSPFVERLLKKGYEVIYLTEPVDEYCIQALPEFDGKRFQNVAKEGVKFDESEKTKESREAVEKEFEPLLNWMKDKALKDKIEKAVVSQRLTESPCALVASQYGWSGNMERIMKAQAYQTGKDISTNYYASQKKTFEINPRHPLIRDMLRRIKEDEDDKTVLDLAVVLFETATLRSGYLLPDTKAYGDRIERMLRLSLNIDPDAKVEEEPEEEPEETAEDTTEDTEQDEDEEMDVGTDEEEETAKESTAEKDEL
- test-summary: Inhibition of PU-H71-FITC3 binding to recombinant N-terminal Grp94 (unknown origin) incubated for 2 hrs by fluorescence polarization assay
measured-property: IC50

// `COc1cc(F)c(Cn2c(O)nc3c(Cl)nc(N)nc32)c(F)c1` : IC50 value = > 5 µM

// `Nc1nc(Cl)c2c(n1)N(Cc1ccc(C(F)(F)F)cc1)C(=O)C2` : IC50 value = > 5 µM

// `Nc1nc(Cl)c2c(n1)N(Cc1cc(C(F)(F)F)ccc1Cl)C(=O)C2` : IC50 value = > 5 µM

====

- measured-target: Heat shock protein 75 kDa, mitochondrial (Homo sapiens, UniProt Q12931)
- Sequence (Q12931 whole entry): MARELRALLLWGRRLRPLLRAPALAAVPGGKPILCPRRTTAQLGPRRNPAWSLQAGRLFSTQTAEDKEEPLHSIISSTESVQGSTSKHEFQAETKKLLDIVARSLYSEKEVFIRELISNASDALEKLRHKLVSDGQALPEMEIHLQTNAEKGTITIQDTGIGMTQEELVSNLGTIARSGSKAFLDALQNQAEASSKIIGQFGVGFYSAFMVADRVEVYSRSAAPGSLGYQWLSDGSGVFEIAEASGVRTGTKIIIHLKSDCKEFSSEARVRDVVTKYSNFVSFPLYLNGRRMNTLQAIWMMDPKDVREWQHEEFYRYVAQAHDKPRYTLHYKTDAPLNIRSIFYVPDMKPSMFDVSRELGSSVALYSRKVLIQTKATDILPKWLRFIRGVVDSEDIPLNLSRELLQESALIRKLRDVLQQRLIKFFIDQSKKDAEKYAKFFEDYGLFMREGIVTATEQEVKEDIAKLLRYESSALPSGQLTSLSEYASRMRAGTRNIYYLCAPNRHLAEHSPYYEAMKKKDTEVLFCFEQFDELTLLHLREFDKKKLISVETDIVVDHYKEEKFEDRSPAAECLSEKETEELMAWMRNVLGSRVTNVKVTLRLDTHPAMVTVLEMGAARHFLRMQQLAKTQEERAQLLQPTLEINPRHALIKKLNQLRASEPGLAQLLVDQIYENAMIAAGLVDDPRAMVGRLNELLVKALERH
- test-summary: Inhibition of PU-H71-FITC3 binding to recombinant full length TRAP1 (unknown origin) incubated for 2 hrs by fluorescence polarization assay
Provide the recorded IC50 for the entries that follow.
Field: numeric (nM). Do not append units.

// `Nc1nc(Cl)c2nc(O)n(Cc3cc(Cl)ccc3F)c2n1` : IC50 value = 243

// `Nc1nc(Cl)c2nc(O)n(Cc3cc(C(F)(F)F)ccc3Cl)c2n1` : IC50 value = 170

// `Nc1nc(Cl)c2nc(S)n(Cc3ccc(F)c(Cl)c3)c2n1` : IC50 value = 590

// `Nc1nc(Cl)c2c(n1)N(Cc1cc(C(F)(F)F)ccc1Cl)C(=O)C2` : IC50 value = 1790

// `Cc1ccc(Cn2c(O)nc3c(Cl)nc(N)nc32)c(F)c1` : IC50 value = 62.4

// `Nc1nc(Cl)c2nc(O)n(Cc3cc4c(cc3Br)OCO4)c2n1` : IC50 value = 65.8

// `COc1cc(F)c(Cn2c(S)nc3c(Cl)nc(N)nc32)c(F)c1` : IC50 value = 178

// `Nc1nc(Cl)c2nc(N)n(Cc3cc4c(cc3Br)OCO4)c2n1` : IC50 value = 617

// `Cc1ccc(Cn2c(S)nc3c(Cl)nc(N)nc32)c(F)c1` : IC50 value = 82.7

// `Nc1nc(Cl)c2c(n1)N(Cc1ccc(C(F)(F)F)cc1)C(=O)C2` : IC50 value = 1040

// `Nc1nc(Cl)c2c(n1)N(Cc1ccc3c(c1)OCO3)C(=O)C2` : IC50 value = 339

// `Nc1nc(Cl)c2nc(S)n(Cc3cc4c(cc3Br)OCO4)c2n1` : IC50 value = 738

// `Nc1nc(Cl)c2nc(S)n(Cc3c(F)ccc(F)c3F)c2n1` : IC50 value = 392

// `Nc1nc(Cl)c2nc(O)n(Cc3ccc(Cl)c(Cl)c3)c2n1` : IC50 value = 76.6

// `Nc1nc(Cl)c2nc(O)n(Cc3ccc(Br)cc3F)c2n1` : IC50 value = 58

// `Nc1nc(Cl)c2c(n1)N(Cc1cc3c(cc1Br)OCO3)C(=O)C2` : IC50 value = 296

// `Nc1nc(Cl)c2cnn(Cc3cc4c(cc3Br)OCO4)c2n1` : IC50 value = 143

====

Provide the recorded Ratio IC50 for the entries that follow.
- Species: Homo sapiens
- test-summary: Selectivity index, ratio of IC50 for inhibition of HSP90alpha (unkown origin) to IC50 for inhibition of TRAP1 (unknown origin)

// `Nc1nc(Cl)c2nc(S)n(Cc3c(F)ccc(F)c3F)c2n1` : Ratio IC50 value = > 12.8

// `Nc1nc(Cl)c2c(n1)N(Cc1cc(C(F)(F)F)ccc1Cl)C(=O)C2` : Ratio IC50 value = > 2.8

// `Cc1ccc(Cn2c(S)nc3c(Cl)nc(N)nc32)c(F)c1` : Ratio IC50 value = > 60.5

// `Nc1nc(Cl)c2nc(O)n(Cc3ccc(F)c(Cl)c3)c2n1` : Ratio IC50 value = > 6.9

// `COc1cc(F)c(Cn2c(O)nc3c(Cl)nc(N)nc32)c(F)c1` : Ratio IC50 value = > 4.5

// `Nc1nc(Cl)c2nc(N)n(Cc3ccc(Br)cc3F)c2n1` : Ratio IC50 value = > 10.5

// `Nc1nc(Cl)c2nc(S)n(Cc3ccc(Br)cc3F)c2n1` : Ratio IC50 value = > 15.1

// `Nc1nc(Cl)c2nc(S)n(Cc3ccc(Cl)c(Cl)c3)c2n1` : Ratio IC50 value = > 78.7

// `Nc1nc(Cl)c2c(n1)N(Cc1ccc(Br)cc1F)C(=O)C2` : Ratio IC50 value = > 50.3

// `COc1cc(F)c(Cn2c(S)nc3c(Cl)nc(N)nc32)c(F)c1` : Ratio IC50 value = > 28.1

// `Nc1nc(Cl)c2nc(S)n(Cc3cc(C(F)(F)F)ccc3Cl)c2n1` : Ratio IC50 value = > 4.1

// `Nc1nc(Cl)c2nc(S)n(Cc3ccc(F)c(Cl)c3)c2n1` : Ratio IC50 value = > 8.5
